Tested on: OVCAR-4
test-name: Cytotoxicity against human OVCAR4 cells assessed as cellular growth at 10 uM by SRB assay
Assay type: functional
quantity-name: Activity (%)
Kindly answer with a numeric value in %, unit omitted.

The examples below pair each entry with its known result.
INSERT INTO measurements (smiles, target_under_test, observed_result) VALUES
  ('COc1ccc(S(=O)(=O)n2ccc(-c3ccc4c(c3)CCC(C)(C)O4)n2)cc1', 'OVCAR-4', 52.32),
  ('Cc1ccc2c(c1)N/C(=C/C(=O)c1ccc(Cl)cc1)C(=O)O2', 'OVCAR-4', 88.88),
  ('O=C(Nc1ccc(S(=O)(=O)Nc2nccs2)cc1)c1cccs1', 'OVCAR-4', 103.47),
  ('Cc1ccc(C(=O)/C=C2/Nc3ccc(C)cc3OC2=O)cc1', 'OVCAR-4', 96.74);

Item: Cc1ccc(S(=O)(=O)NC2=NC(=O)/C(=C\c3ccccc3)S2)cc1 | Activity: 96.34

Item: Cc1ccc(C2=N/C(=C\c3ccccc3)C(=O)O2)cc1 | Activity: 108.84

Item: Nc1c(C(=O)Nc2ccc(Cl)c(Cl)c2)sc2nc(-c3cccs3)ccc12 | Activity: 55.74

Item: O=C(Nc1nc2ccc(Cl)cc2s1)c1ccc(Cl)cc1 | Activity: 100.6

Item: O=C(NCCc1ccc(Cl)cc1)c1[nH]c2ccccc2c1Cl | Activity: 89.13
